Provide the recorded activation for the entries that follow.
Biological target: Atrial natriuretic peptide receptor 2 (Homo sapiens)
Assay: GC-B stimulated cGMP production enhancers – HEK293 GC-B cells, cGMP TR-FRET, EC30 CNP, primary screen (AID 1920062)
Conditions: at 10 µM, active compounds read high, 0% at EC30 CNP, 100% saturating CNP
In all, about 370,000 compounds went through this assay and about 400 (0.11%) were called active. Many of the other results were omitted from the sample, so actives are more common in it than they were.
One number for each entry, in %.

Example results:
CCc1nc2c(OCc3ccccc3)cccn2c1N(C)C(=O)c1ccco1    3.48
Cc1cc(C)n(-c2nc(O)cc(=O)[nH]2)n1    6.13
CN(C)c1nc2n(c(=O)n1)CCO2    4.05
CC(=O)c1cccc(NC(=O)CN2C(=O)c3cccnc3Oc3ccc(Cl)cc32)c1    -2.67
COc1ccc(S(=O)(=O)N2CCN(C)CC2)c(C)c1    -1.64

Input: I am curious: what activation value has been reported for N#CC1(NC(=O)COc2ccc3oc4ccccc4c3c2)CCCCC1 ?
Output: -3.84

* * *

Molecular target: Atrial natriuretic peptide receptor 2 (Homo sapiens)
Assay: GC-B stimulated cGMP production enhancers – HEK293 GC-B cells, cGMP TR-FRET, EC30 CNP, primary screen (AID 1920062)
Conditions: at 10 µM, active compounds read high, 0% at EC30 CNP, 100% saturating CNP
The whole screen tested about 370,000 compounds, of which about 400 (0.11%) were called active. The sample as a whole holds a higher share of actives than the screen did.
Provide the recorded activation for the entries that follow.
Give bare numbers, in %.

Example results:
O=C(Nc1ccc(Br)cc1)c1cccc(NC(=O)C2C3CC4OC(=O)C2C4C3)c1 (stereo unspecified)    -4.37
O=C1OCC2=C1C(c1ccccc1)CC(=O)N2c1cccc(F)c1 (stereo unspecified)    3.79
CCCOc1ccc(CN(CCO)CCO)cc1C(=O)OC    3.92
CCCCn1c(N)c(N(CC(C)C)C(=O)c2cccc(S(=O)(=O)N3CCN(C(C)=O)CC3)c2)c(=O)[nH]c1=O    4.82

For every listed record, write down its activation.
1. CCN(CC(=O)NCc1cccs1)S(=O)(=O)c1ccc(NC(C)=O)cc1
2. Cc1cc(C)c(C#N)c(SCc2ccc3c(c2)OCO3)n1
3. C=C1C2C[C@H](O)C(C)(C)[C@@]2(O)[C@H](O)C[C@]23C[C@@](C)(O)[C@H](CC[C@H]12)[C@H]3O (stereo partly specified)
4. O=C(Nc1ccccc1Cl)NC1(C(=O)N2CCOCC2)CCCCC1
5. CN(C)C(=O)c1cccc(-c2cnc3sc(NCc4ccc5c(c4)OCO5)nn23)c1
6. CCN(CC)C(=O)Cn1cc(S(=O)(=O)CC(=O)NCc2ccc3c(c2)OCO3)c2ccccc21

Output:
1: 5.26; 2: 6.77; 3: 5.08; 4: 0.64; 5: 43; 6: 2.01

For every listed record, write down its activation.
1. O=C(NCc1ccc2c(c1)OCO2)c1sccc1Br
2. Cc1c2cnn(CC(=O)NCc3ccccn3)c(=O)c2c(C)n1Cc1ccc(Cl)cc1
3. COc1ccccc1NC(=O)CSc1nnc(Cn2nnc(-c3ccccc3)n2)n1-c1ccccc1
4. CC(=O)Nc1ccc(NC(=O)CSc2nnnn2-c2ccccc2F)cc1
5. CC(=O)N1C(C)c2ccccc2C(C)(C)CC12CCCCC2 (stereo unspecified)

Output:
8.92
0.59
-7.79
-2.78
1.32

For every listed record, write down its activation.
1. O=C(Cc1ccc(-n2c(=O)c3sccc3n(Cc3ccc(F)cc3)c2=O)cc1)NCc1ccco1
2. Cc1ccc(/C=C(\C#N)C(=O)Nc2cccc3ncccc23)o1
3. COc1ccc(CSc2nc(N3CCOCC3)c3c(c2C#N)CC(C)(C)OC3)cc1
4. c1ccc(CSc2ncnc3c2sc2nc(N4CCOCC4)c4c(c23)CCCC4)cc1
5. Cc1ccccc1NC(=O)COC(=O)c1ccc(Sc2ncn[nH]2)c([N+](=O)[O-])c1
6. Cc1cnc(C)c(N2CCN(C(=O)C3CCC(=O)N(CCc4cccc(F)c4)C3)CC2)n1 (stereo unspecified)

Output:
1: 6.68; 2: -4.94; 3: 48.4; 4: -0.49; 5: -1.97; 6: 1.57
